ASSAY PROCEDURE: Percent instability was measured by Rat S9 liver […] metabolism assay, in vitro
Format: ADME, Liver S9 fraction
PROTOCOL CONDITIONS: read-out: Activity
VALUE KIND: metabolised (%)

{"ENTRY SMILES": "CCCC[C@H](NC(=O)OC(C(C)C)C(C)C)C(=O)C(=O)Nc1[nH]ncc1C", "metabolised, %": 68}
{"ENTRY SMILES": "CCCC[C@H](NC(=O)OC(C(C)C)C(C)C)C(=O)C(=O)Nc1nccs1", "metabolised, %": 98}
{"ENTRY SMILES": "CCCC[C@H](NC(=O)OC(C(C)C)C(C)C)C(=O)C(=O)Nc1nncs1", "metabolised, %": 96}

a = CCCC[C@H](NC(=O)OC(C(C)C)C(C)C)C(=O)C(=O)Nc1ccccn1
b = CCCC[C@H](NC(=O)OC(C(C)C)C(C)C)C(=O)C(=O)Nc1ccnn1C
Query: Please indicate which entry, a or b , has the lower recorded metabolised value. State your choice using its label.
Result: a

---

ASSAY PROCEDURE: Selectivity ratio between IC50 against Cathepsin S and IC50 against Cathepsin K
VALUE KIND: Ratio

These solved cases illustrate the format of a correct answer.
{"ENTRY SMILES": "CCCC[C@H](NC(=O)OC(C(C)C)C(C)C)C(=O)C(=O)Nc1[nH]nc2cccc(F)c12", "Ratio": 2.3}
{"ENTRY SMILES": "CCCC[C@H](NC(=O)OC(C(C)C)C(C)C)C(=O)C(=O)Nc1[nH]ncc1C", "Ratio": 1.7}
{"ENTRY SMILES": "CCCC[C@H](NC(=O)OC(C(C)C)C(C)C)C(=O)C(=O)Nc1[nH]ncc1-c1ccccc1", "Ratio": 4.1}
{"ENTRY SMILES": "CCCC[C@H](NC(=O)OC(C(C)C)C(C)C)C(=O)C(=O)Nc1[nH]ncc1Br", "Ratio": 4.2}

a = CCCC[C@H](NC(=O)OC(C(C)C)C(C)C)C(=O)C(=O)Nc1ccnn1-c1ccccn1
b = CCCC[C@H](NC(=O)OC(C(C)C)C(C)C)C(=O)C(=O)Nc1cc[nH]n1
Query: Return label of the item with the larger Ratio. Candidates: a , b . Use the label to indicate which entry you chose.
Result: a
(a: 8.3, b: 3)

---

Organism: Homo sapiens
ASSAY PROCEDURE: Selectivity as ratio between IC50 against Cathepsin V and IC50 against Cathepsin K
VALUE KIND: Ratio

{"ENTRY SMILES": "CCCC[C@H](NC(=O)OC(C(C)C)C(C)C)C(=O)C(=O)Nc1[nH]ncc1-c1ccccc1", "Ratio": 9.1}

I = CCCC[C@H](NC(=O)OC(C(C)C)C(C)C)C(=O)C(=O)Nc1ccnn1CC(C)C
II = CCCC[C@H](NC(=O)OC(C(C)C)C(C)C)C(=O)C(=O)Nc1cc(-c2ccccc2)[nH]n1
Query: Select the item with the higher value of Ratio from the options I and II listed. # answer = label of selected item
Result: I
(I: 120, II: 20)

A = CCCC[C@H](NC(=O)OC(C(C)C)C(C)C)C(=O)C(=O)Nc1ccnn1C1CCC1
B = CCCC[C@H](NC(=O)OC(C(C)C)C(C)C)C(=O)C(=O)Nc1cc[nH]n1
Query: Which item exceeds the other in Ratio, A or B ? Answer by quoting the chosen item's label.
Result: A
(A: 140, B: 21)

---

ASSAY PROCEDURE: Half-life in rat
Assay type: ADME, organism-based
PROTOCOL CONDITIONS: in vivo
VALUE KIND: half-life (h)

{"ENTRY SMILES": "CCCC[C@H](NC(=O)OC(C(C)C)C(C)C)C(=O)C(=O)Nc1ccnn1C", "half-life [h]": 4}
{"ENTRY SMILES": "CCCC[C@H](NC(=O)OC(C(C)C)C(C)C)C(=O)C(=O)Nc1ccccn1", "half-life [h]": 2.17}
{"ENTRY SMILES": "CCCC[C@H](NC(=O)OC(C(C)C)C(C)C)C(=O)C(=O)Nc1nncs1", "half-life [h]": 2.83}

P = CCCC[C@H](NC(=O)OC(C(C)C)C(C)C)C(=O)C(=O)Nc1cc[nH]n1
Q = CCCC[C@H](NC(=O)OC(C(C)C)C(C)C)C(=O)C(=O)Nc1nccs1
Query: For the two items P and Q , which reports the higher half-life value? Write down the label attached to your selection.
Result: P
(P: 11.7 h, Q: 2.17 h)

---

Species on record: Rattus norvegicus
ASSAY PROCEDURE: Volume of distribution in steady state was determined in rat
Type: ADME, organism-based
PROTOCOL CONDITIONS: in vivo
VALUE KIND: Vss (L/kg)
Write the value in L/kg as a bare number.

Query: Fill in the blank: the reported Vss of CCCC[C@H](NC(=O)OC(C(C)C)C(C)C)C(=O)C(=O)Nc1cc[nH]n1 is ____.
Result: 15

---

ASSAY PROCEDURE: Peak plasma concentration in rat
Format: ADME, organism-based
VALUE KIND: Cmax (ng/mL)

{"ENTRY SMILES": "CCCC[C@H](NC(=O)OC(C(C)C)C(C)C)C(=O)C(=O)Nc1ccccn1", "Cmax, ng/mL": 1400}
{"ENTRY SMILES": "CCCC[C@H](NC(=O)OC(C(C)C)C(C)C)C(=O)C(=O)Nc1nccs1", "Cmax, ng/mL": 170}
{"ENTRY SMILES": "CCCC[C@H](NC(=O)OC(C(C)C)C(C)C)C(=O)C(=O)Nc1ccnn1C", "Cmax, ng/mL": 970}

I = CCCC[C@H](NC(=O)OC(C(C)C)C(C)C)C(=O)C(=O)Nc1nncs1
II = CCCC[C@H](NC(=O)OC(C(C)C)C(C)C)C(=O)C(=O)Nc1cc[nH]n1
Query: Consider I and II . Which of these has its Cmax at a higher number? Select an item and report its label.
Result: I

---

ASSAY PROCEDURE: Selectivity as ratio between IC50 against Cathepsin B and IC50 against Cathepsin K
VALUE KIND: Ratio

{"ENTRY SMILES": "CCCC[C@H](NC(=O)OC(C(C)C)C(C)C)C(=O)C(=O)Nc1cc(-c2ccccc2)[nH]n1", "VALUE KIND": "Ratio", "OBS VALUE": 520}

a = CCCC[C@H](NC(=O)OC(C(C)C)C(C)C)C(=O)C(=O)Nc1cc[nH]n1
b = CCCC[C@H](NC(=O)OC(C(C)C)C(C)C)C(=O)C(=O)Nc1[nH]ncc1C
Query: Given a and given b , which shows the smaller recorded Ratio? Indicate which entry you chose by stating its label.
Result: a
(a: 670, b: 1100)
